Please respond with reported inhibition at 256 µg/mL for every item in the list.
experimentalTarget: α-glucosidase from Saccharomyces cerevisiae (Saccharomyces cerevisiae, UniProt P53341)
Sequence (P53341 whole entry): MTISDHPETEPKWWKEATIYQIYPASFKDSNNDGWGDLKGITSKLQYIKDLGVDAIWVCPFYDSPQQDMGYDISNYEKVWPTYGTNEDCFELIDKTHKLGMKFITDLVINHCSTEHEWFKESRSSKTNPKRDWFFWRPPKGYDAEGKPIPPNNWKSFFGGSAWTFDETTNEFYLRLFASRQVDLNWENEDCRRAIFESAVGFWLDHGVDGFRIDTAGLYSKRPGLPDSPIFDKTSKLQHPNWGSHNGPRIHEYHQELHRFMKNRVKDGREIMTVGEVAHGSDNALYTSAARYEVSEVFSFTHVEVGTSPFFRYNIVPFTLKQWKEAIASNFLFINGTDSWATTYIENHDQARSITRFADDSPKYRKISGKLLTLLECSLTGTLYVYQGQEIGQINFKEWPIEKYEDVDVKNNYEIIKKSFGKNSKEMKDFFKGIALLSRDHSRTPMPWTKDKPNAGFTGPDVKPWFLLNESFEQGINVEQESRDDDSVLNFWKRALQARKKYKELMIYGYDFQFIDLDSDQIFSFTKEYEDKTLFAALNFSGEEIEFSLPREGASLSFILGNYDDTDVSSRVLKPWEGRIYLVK
experimentDescription: In vitro α-glucosidase inhibition (p-NPG substrate);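 note: yeast α-glucosidase at 0.2 U/mL with p-nitrophenyl α-D-glucopyranoside substrate in 100 mM potassium phosphate pH 6.8, product read by absorbance at 410 nm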
conditionInfo: read-out: α-Glucosidase Inhibition (%)
Give bare numbers, in %.

[
  {
    "compound": "C[C@H]1C(=O)CC[C@@H]2[C@]1(C)CC[C@H]1[C@@]2(C)CC[C@@]2(C)[C@@H]3CC(C)(C)CC[C@]3(C)CC[C@]12C",
    "uom": "%",
    "numericReadout": 23
  },
  {
    "compound": "C[C@H]1[C@H](C)CC[C@]2(C(=O)O)CC[C@]3(C)C(=CC[C@@H]4[C@@]5(C)CC[C@H](O)C(C)(C)[C@@H]5CC[C@]43C)[C@H]12",
    "uom": "%",
    "numericReadout": 99
  },
  {
    "compound": "CC(C)=CCC[C@](C)(O[C@@H]1O[C@H](CO[C@@H]2O[C@H](CO)[C@@H](O)[C@H](O)[C@H]2O)[C@@H](O)[C@H](O)[C@H]1O)[C@H]1CC[C@]2(C)[C@@H]1[C@H](O)C[C@@H]1[C@@]3(C)CC[C@H](O[C@@H]4O[C@H](CO)[C@@H](O)[C@H](O)[C@H]4O)C(C)(C)[C@@H]3CC[C@]12C [Compound 6, gypenoside XVII]",
    "uom": "%",
    "numericReadout": 34
  },
  {
    "compound": "COc1cc(/C=C/CO)cc(OC)c1O[C@@H]1O[C@H](CO)[C@@H](O)[C@H](O)[C@H]1O",
    "uom": "%",
    "numericReadout": 12
  }
]

Kindly review the next compound as well.
Determine its reported inhibition at 256 µg/mL: C[C@@H]1O[C@@H](OC[C@H]2O[C@@H](Oc3c(-c4ccc(O)c(O)c4)oc4cc(O)cc(O)c4c3=O)[C@H](O)[C@@H](O)[C@@H]2O)[C@H](O)[C@H](O)[C@H]1O
85

====

Provide the recorded pIC50 for the entries that follow.
experimentalTarget: α-glucosidase from Saccharomyces cerevisiae (Saccharomyces cerevisiae)
experimentDescription: In vitro α-glucosidase inhibition (p-NPG substrate)
conditionInfo: IC50 for inhibition of α-glucosidase, tested 1–256 µg/mL; mean of three replicates ± SD
pIC50: −log10 of the molar value.

[
  {
    "compound": "C[C@H]1[C@H](C)CC[C@]2(C(=O)O)CC[C@]3(C)C(=CC[C@@H]4[C@@]5(C)CC[C@H](O)C(C)(C)[C@@H]5CC[C@]43C)[C@H]12",
    "outcomeMeasure": "pIC50",
    "result": 5.62
  },
  {
    "compound": "C[C@@H]1O[C@@H](OC[C@H]2O[C@@H](Oc3c(-c4ccc(O)c(O)c4)oc4cc(O)cc(O)c4c3=O)[C@H](O)[C@@H](O)[C@@H]2O)[C@H](O)[C@H](O)[C@H]1O",
    "outcomeMeasure": "pIC50",
    "result": 5.44
  },
  {
    "compound": "COc1cc(/C=C/CO)cc(OC)c1O[C@@H]1O[C@H](CO)[C@@H](O)[C@H](O)[C@H]1O",
    "outcomeMeasure": "pIC50",
    "result": "< 3.16"
  }
]

Provide the reported pIC50 of each entry below, same order.
1. COc1ccc2c(c1)OC[C@H]1c3cc4c(cc3O[C@@H]21)OCO4
2. C[C@@H]1CC[C@]2(C(=O)O[C@@H]3O[C@H](CO)[C@@H](O)[C@H](O)[C@H]3O)CC[C@]3(C)C(=CC[C@@H]4[C@@]5(C)CC[C@H](O)[C@@](C)(CO)[C@@H]5CC[C@]43C)[C@@H]2[C@]1(C)O [Compound 3, pedunculoside]
3. CC(C)=CCC[C@](C)(O[C@@H]1O[C@H](CO[C@@H]2O[C@H](CO)[C@@H](O)[C@H](O)[C@H]2O)[C@@H](O)[C@H](O)[C@H]1O)[C@H]1CC[C@]2(C)[C@@H]1[C@H](O)C[C@@H]1[C@@]3(C)CC[C@H](O[C@@H]4O[C@H](CO)[C@@H](O)[C@H](O)[C@H]4O)C(C)(C)[C@@H]3CC[C@]12C [Compound 6, gypenoside XVII]
4. C[C@H]1C(=O)CC[C@@H]2[C@]1(C)CC[C@H]1[C@@]2(C)CC[C@@]2(C)[C@@H]3CC(C)(C)CC[C@]3(C)CC[C@]12C

["< 3.07", 3.55, "< 3.57", "< 3.22"]

# return pIC50 for each item in the list
1. O=c1c(-c2ccc(O)cc2)coc2cc(O[C@@H]3O[C@H](CO)[C@@H](O)[C@H](O)[C@H]3O)ccc12
2. C[C@@H]1CC[C@]2(C(=O)O)CC[C@]3(C)C(=CC[C@@H]4[C@@]5(C)CC[C@H](O)[C@@](C)(CO)[C@@H]5CC[C@]43C)[C@@H]2[C@]1(C)O

1: < 3.21; 2: < 3.28
